Values compiled from PubChem BioAssay (NCATS).

Test: qHTS profiling of the MIPE4 collection as inhibitors of Plasmodium falciparum (HB3) proliferation (AID 743347);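 note: plate controls were DMSO vehicle wells for no effect and artemisinin wells for full effect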
Details: P. falciparum HB3 in erythrocytes, SYBR Green DNA, 72 h; at 28.5 µM (top of the series) unless noted
Please respond with reported growth, % of control for every item in the list.
Give the number first and the unit second.

Recorded result, Cc1cc2nc3c(=O)[nH]c(=O)nc-3n(CC(O)C(O)C(O)CO)c2cc1C (stereo not given) , growth, % of control: 17.8%

Recorded result, `Cc1nc(C(=O)NCC(=O)O)c(O)c2ccc(Oc3ccccc3)cc12` , growth, % of control: 69.9%

Recorded result, `CN(C)c1ccc(-c2nc3ncc(Cl)c(N4CCN(CC(=O)Nc5nccs5)CC4)c3[nH]2)cc1` , growth, % of control: 2.92%

Recorded result, CCC(c1ccc(O)cc1)C(CC)c1ccc(O)cc1 (stereo not given) , growth, % of control: 106%

Recorded result, `CCC[C@H](N[C@@H](C)C(=O)N1[C@@H]2CCCC[C@H]2C[C@H]1C(=O)O)C(=O)OCC` , growth, % of control: 98.7%

* * *

Experiment: Identifying Small Molecule Inhibitors of Pancreatic Cancer Stem Cells (SN12C, Adherent) (AID 1259358);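 note: cell survival measured after 48 h of compound exposure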
Conditions: viability/growth inhibition; series mostly up to 46.1 µM
Inconclusive results are not listed. Activity calls are given as the source filed them. Calls follow the shape of the dose curve; as a rule, active = well fitted cell-killing curve with a large enough effect; inconclusive = small, poorly fitted or top-dose-only effect; inactive = flat fitted curve, though single readings scatter.
Please answer using one outcome listed in yes (1) = active, no (0) = inactive

Field: outcome | Entry: `CN(C)CCCNC(=O)c1ccc(-c2cc(O)c3ncccc3c2)cc1`
no (0)

Field: outcome | Entry: `COc1cc2c(cc1OC)CC(=O)N(CCCN(C)C[C@H]1Cc3cc(OC)c(OC)cc31)CC2`
no (0)

Field: outcome | Entry: `O=C(O)c1ccc(O)c2ncc(N3CCOCC3)cc12`
no (0)

Field: outcome | Entry: `COc1cc2nccc(Oc3ccc(NC(=O)Nc4cc(C)on4)c(Cl)c3)c2cc1OC`
yes (1)

Field: outcome | Entry: `COc1nc(C)cnc1NS(=O)(=O)c1cccnc1-c1ccc(-c2nnco2)cc1`
no (0)

Field: outcome | Entry: `COC(=O)Nc1ccc(-c2nc(N3CCOCC3)c3cnn(C4CCN(C(=O)OC)CC4)c3n2)cc1`
yes (1)

Field: outcome | Entry: `O=C(O)Cc1cccc(OCCCN(Cc2cccc(C(F)(F)F)c2Cl)CC(c2ccccc2)c2ccccc2)c1`
no (0)

Field: outcome | Entry: O=C1C(CCC(O)c2ccc(F)cc2)C(c2ccc(O)cc2)N1c1ccc(F)cc1 (stereo not given)
no (0)

Field: outcome | Entry: CN1C(=O)C(Cc2c[nH]c3ccccc23)NC1=S (stereo not given)
no (0)

Field: outcome | Entry: `O=C(Nc1cccc(Cl)c1)Nc1ncc(CCNc2ncnc3ccsc23)s1`
no (0)

* * *

Experiment: Quantitative High-Throughput drug screen in 47 multiple myeloma cell lines against the NCATS MIPE library collection: PCM6_Riken cell viability assay (AID 1919870); note: nearly all actives have a fitted effect of over 30% in size
Details: CellTiter-Glo ATP, 48 h; series mostly up to 45.8 µM
Inconclusive results are not listed. Activity calls are given as the source filed them. Calls come from the whole dose curve; as a rule, active = well fitted cell-killing curve with a large enough effect; inconclusive = small, poorly fitted or top-dose-only effect, or effect the other way; inactive = no such curve, though single readings can be large or run the other way.
Please answer using one outcome listed in active, inactive

Field: outcome | Entry: `C[C@@H]1CCO[C@H]2Cn3cc(C(=O)NCc4ccc(F)cc4F)c(=O)c(O)c3C(=O)N12`
active

Field: outcome | Entry: `O=C(c1ccc(C=Cc2n[nH]c3ccccc23)cc1)N1CCNCC1`
active

Field: outcome | Entry: `CCc1cc(-c2n[nH]c(C)c2-c2ccc3c(c2)OCCO3)c(O)cc1O`
active

Field: outcome | Entry: COC1CCC(C(=O)c2ccc3nc4c(cc3c2)CCCO4)CC1 (centres undefined)
active

Field: outcome | Entry: `O=C(O)Cc1cccc(OCCCN(Cc2cccc(C(F)(F)F)c2Cl)CC(c2ccccc2)c2ccccc2)c1`
active

Field: outcome | Entry: COc1ccc(-c2nc3ccc(C4=NNC(=O)CC4C)cc3[nH]2)cc1 (centres undefined)
inactive

Field: outcome | Entry: CCOC(=O)[C@H](CCc1ccccc1)N[C@@H](C)C(=O)N1CCCC1C(=O)O (some centres undefined)
active

Field: outcome | Entry: `O=C(Nc1ncc(SCCN2CCCC2)s1)[C@]1(c2ccc(S(=O)(=O)C3CC3)cc2)C[C@@H]1C1CCCCC1`
active

Field: outcome | Entry: `OC[C@H]1O[C@@H](Oc2ccc(O)cc2)[C@H](O)[C@@H](O)[C@H]1O`
inactive

* * *

Test: qHTS of pediatric cancer cell lines to identify multiple opportunities for drug repurposing: Primary screen for SK-N-SH cells (AID 1347098); note: nearly all actives have a fitted effect of over 65% in size
Settings: SK-N-SH viability, CellTiter-Glo luminescence, 48 h; series mostly up to 57 µM
Records with an inconclusive call do not appear. The source made the active and inactive calls. Calls come from the whole dose curve; as a rule, active = well fitted cell-killing curve with a large enough effect; inconclusive = small, poorly fitted or top-dose-only effect; inactive = no such curve, though single readings can be large or run the other way.
Please answer using one outcome listed in True (active), False (inactive)

Field: outcome | Entry: `N#CC(=C1Nc2ccccc2S1)c1ccnc(OCc2ccc(CN3CCOCC3)cc2)n1`
True

Field: outcome | Entry: `CCCCC(C)(C)[C@H](O)C=C[C@H]1[C@H](O)CC(=O)[C@H]1CC=CCCCC(=O)O`
False

Field: outcome | Entry: CN1[C@H]2CC[C@H]1CC(OC(=O)c1c[nH]c3ccccc13)C2 (stereo partly drawn)
True

Field: outcome | Entry: `O=c1[nH]c(=O)n([C@H]2C[C@@H](O)[C@@H](CO)O2)cc1C(F)(F)F`
False

Field: outcome | Entry: `Cc1ccc(NC(=O)Nc2cc(C(F)(F)F)ccc2F)cc1Nc1ccc2c(c1)NC(=O)C2=Cc1ccc[nH]1`
True

Field: outcome | Entry: `CO[C@H]1/C=C\O[C@@]2(C)Oc3c(C)c(O)c4c(O)c(c5c(nc6cc(C)ccn65)c4c3C2=O)NC(=O)C(C)=CC=C[C@H](C)[C@H](O)[C@@H](C)[C@@H](O)[C@@H](C)[C@H](OC(C)=O)[C@H]1C`
False

Field: outcome | Entry: COc1ccc(-c2nc3ccc(C4=NNC(=O)CC4C)cc3[nH]2)cc1 (stereo not drawn)
True

Field: outcome | Entry: `CN1CCN(c2ncc(-c3cc(Cl)cc(Cl)c3Cl)c(N)n2)CC1`
True

* * *

Please respond with reported Potency for every item in the list.
Assay: Quantitative High-Throughput drug screen in 47 multiple myeloma cell lines against the NCATS MIPE library collection: JJN3_DSMZ cell viability assay (AID 1918966; note: potency is the fitted concentration of half-maximal effect; nearly all actives have a fitted effect of over 50% in size)
Details: JJN3 myeloma cells viability, CellTiter-Glo ATP, 48 h; series mostly up to 45.8 µM
Results filed as inconclusive are left out. Calls of active or inactive are those of the source. Calls follow the shape of the dose curve; as a rule, active = well fitted cell-killing curve with a large enough effect; inconclusive = small, poorly fitted or top-dose-only effect, or effect the other way; inactive = no such curve, though single readings can be large or run the other way.

Recorded result, `CCOc1ccccc1N=Nc1c(C)[nH]n(-c2nc(-c3ccccc3)cs2)c1=O` , Potency: 10.5 µM (active)

Recorded result, `Cc1ccc(C2=Nc3ccc(Cl)cc3OC2)cc1` , Potency: 5.26 µM (active)

Recorded result, `Cc1nc(NC(=O)N2CCC[C@@H]2C(N)=O)sc1-c1csc(C(C)(C)C)n1` , Potency: 6.62 µM (active)

Recorded result, `CN(C)CC[C@H](CSc1ccccc1)Nc1ccc(S(=O)(=O)NC(=O)c2ccc(N3CCN(Cc4ccccc4-c4ccc(Cl)cc4)CC3)cc2)cc1[N+](=O)[O-]` , Potency: 8.33 µM (active)

Recorded result, `C[C@H]1COC2=C1C(=O)C(=O)c1c2ccc2c1CCCC2(C)C` , Potency: 18.7 µM (active)

Recorded result, Cc1cc2nc3c(=O)[nH]c(=O)nc-3n(CC(O)C(O)C(O)CO)c2cc1C (centres undefined) , Potency: 2.64 µM (active)

Recorded result, `CCC[C@H](Nc1nc(-c2ccc(NC(=O)NCC)c(OC)c2)ncc1C)c1cccnc1` , Potency: 0.0235 µM (active)

Recorded result, CC1(C)CC(=O)c2c(C(F)(F)F)nn(-c3ccc(C(N)=O)c(NC4CCC(O)CC4)c3)c2C1 (centres undefined) , Potency: 0.0662 µM (active)

* * *

Assay: Primary qHTS for inhibitors of nuclear receptor binding SET domain protein 2 (NSD2) in an isogenic RCH-ACV NSD2 p.E1099K mutant (9B) (AID 1645876); note: nearly all actives have a fitted effect of over 70% in size
Details: RCH-ACV (leukaemia line) NSD2 E1099K (9B) viability, CellTiter-Glo, 72 h; series mostly up to 44.9 µM
Records with an inconclusive call do not appear. Activity calls are given as the source filed them. The call rests on the fitted dose curve; in most records, active means well fitted inhibition curve with a large enough effect; inconclusive means small, poorly fitted or top-dose-only effect; inactive means flat fitted curve, though single readings scatter.
Please answer using one outcome listed in active, inactive

Field: outcome | Entry: `CN(C)c1nc(Cc2ccc(NC(=O)c3ccc(C(F)(F)F)cc3)cc2)nc(N(C)C)c1CC(=O)O`
inactive

Field: outcome | Entry: `C[C@@]1(c2cc(-c3cncnc3)c(F)cc2F)CCSC(N)=N1`
inactive

Field: outcome | Entry: `CCN(CCO)CCCOc1ccc2c(Nc3cc(CC(=O)Nc4cccc(F)c4)[nH]n3)ncnc2c1`
active

Field: outcome | Entry: `CN[C@@H]1CN(c2ccc3c(=O)c(C(=O)O)cn(-c4nccs4)c3n2)C[C@@H]1OC`
active

Field: outcome | Entry: `c1ccc(-c2oc3ncnc(NC[C@@H]4CCCO4)c3c2-c2ccccc2)cc1`
inactive

Field: outcome | Entry: `COC(=O)[C@H](c1ccccc1Cl)N1CCc2sccc2C1`
inactive

Field: outcome | Entry: `O=S(=O)(O)c1ccc2cc(N=Nc3cc(S(=O)(=O)O)c4cccnc4c3O)ccc2c1`
inactive

Field: outcome | Entry: OC(c1cc(C(F)(F)F)nc2c(C(F)(F)F)cccc12)C1CCCCN1 (stereo not given)
active

Field: outcome | Entry: `CCC(=O)NCC[C@@H]1CCc2ccc3c(c21)CCO3`
inactive

Field: outcome | Entry: `CC(C)(CO)[C@@H](O)C(=O)NCCC(=O)O`
inactive

Field: outcome | Entry: `CCN(CC)CCCCNc1nc2cc(Cl)c(Cl)cc2nc1-c1ccc(-c2cccs2)s1`
active

Field: outcome | Entry: CC[C@@H]([C@H](C)O)n1ncn(-c2ccc(N3CCN(c4ccc(OCC5CO[C@@](Cn6cncn6)(c6ccc(F)cc6F)C5)cc4)CC3)cc2)c1=O (stereo not given in full)
inactive

Field: outcome | Entry: `CCCCC(C)(C)[C@H](O)C=C[C@H]1[C@H](O)CC(=O)[C@H]1CC=CCCCC(=O)O`
inactive

Field: outcome | Entry: `Cc1cn([C@@H]2C[C@@H](O)[C@H](CO)O2)c(=O)[nH]c1=O`
inactive

Field: outcome | Entry: `O=C(Nc1cccc(C(F)(F)F)c1)Nc1cc(S(=O)(=O)NC2CC2)ccc1-c1ccsc1`
active

Field: outcome | Entry: `Cc1nc(NC(=O)N2CCC[C@@H]2C(N)=O)sc1-c1csc(C(C)(C)C)n1`
active

Field: outcome | Entry: N#CC(c1ccnc(NCCc2cccnc2)n1)c1nc2ccccc2s1 (stereo not given)
active

Field: outcome | Entry: `CN(C)CCN(Cc1ccc(Cl)cc1)c1ccccn1`
inactive

Field: outcome | Entry: `Cc1cnc(Nc2cccc(CN3CCOCC3)c2)nc1Nc1cccc(S(=O)(=O)NC(C)(C)C)c1`
active

Field: outcome | Entry: `O=C(O)CCNc1cc(N2CCc3ccccc3CC2)nc(-c2ccccn2)n1`
inactive
